The measurements presented in this section are drawn from the supplement of paper PMC6555819.

- Tested on: RXRa homodimer (NR concentration 180 nM)
- Assay name: PBM binding z-score (relative to random genomic background probes); higher = stronger binding; sequences stand for … in GC…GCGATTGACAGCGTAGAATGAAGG
Measurement label: PBM binding z-score
Please respond with just the number, no unit label.

Please give measured PBM binding z-score of the following entry: `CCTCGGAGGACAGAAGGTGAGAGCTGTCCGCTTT`
-0.253

Output measured PBM binding z-score for this item: `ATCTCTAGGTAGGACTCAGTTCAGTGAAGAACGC`
0.071

Tell me PBM binding z-score reported for `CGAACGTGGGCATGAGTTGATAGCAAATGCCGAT`
-0.376

Look up and report measured PBM binding z-score for this entry: `GCTCGGAGGACAAGGTCAGAACTTTGTCCGTAGA`
2.6

Tell me its PBM binding z-score given `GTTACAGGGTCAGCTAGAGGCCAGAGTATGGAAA` as the entry.
4.47

Answer with reported PBM binding z-score of `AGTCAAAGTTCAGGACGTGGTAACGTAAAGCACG`
2.67

Read off the recorded PBM binding z-score for `ACTTACGGGTCAACGAGGTTATGGCACGCGTATA`
6.57

Note down PBM binding z-score recorded for `TAGCCTAGGTCATTTAGGGGCCAGTATAGAAAGC`
2.63

Query PBM binding z-score for `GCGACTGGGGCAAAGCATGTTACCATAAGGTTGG`
0.0784

Identify measured PBM binding z-score associated with `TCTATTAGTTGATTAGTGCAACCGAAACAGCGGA`
0.333

Tell me its PBM binding z-score given `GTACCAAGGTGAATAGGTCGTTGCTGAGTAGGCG` as the entry.
1.53

// fetch PBM binding z-score given entry `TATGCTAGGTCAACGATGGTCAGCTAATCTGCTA`
2.62

Read the entry `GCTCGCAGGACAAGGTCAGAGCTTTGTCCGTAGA` and write its reported PBM binding z-score.
2.1

Please report PBM binding z-score for the following sequence: `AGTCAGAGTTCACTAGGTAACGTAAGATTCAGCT`
3.63

Answer with the recorded PBM binding z-score for the sequence listed here: `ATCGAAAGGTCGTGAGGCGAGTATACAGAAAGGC`
5.34

Note PBM binding z-score for the sequence shown: `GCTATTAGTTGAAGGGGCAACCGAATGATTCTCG`
0.206

Quick one: give measured PBM binding z-score for `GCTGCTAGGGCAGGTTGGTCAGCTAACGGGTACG`
-0.467

Supply reported PBM binding z-score belonging to this sequence: `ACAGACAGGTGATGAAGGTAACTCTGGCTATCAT`
0.387

Output PBM binding z-score of `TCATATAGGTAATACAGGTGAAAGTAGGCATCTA`
1.2

Recall and state the measured PBM binding z-score for `TGAATGAGGTTATAAGATCTGGGAACGTTGCAAA` .
1.61

Read off the recorded PBM binding z-score for `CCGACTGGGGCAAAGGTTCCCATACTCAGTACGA`
0.724

Give PBM binding z-score for the following sequence: `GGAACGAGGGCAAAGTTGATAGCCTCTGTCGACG`
1.84

State its PBM binding z-score for this sequence: `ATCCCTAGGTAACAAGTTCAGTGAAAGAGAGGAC`
0.712

Tell me measured PBM binding z-score for `GGAGCGAGGGCATTCGAGTTGATAGCATGGCGAT` please.
0.554

# return recorded PBM binding z-score for entry `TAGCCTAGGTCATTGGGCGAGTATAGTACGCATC`
2.88

Tell us which PBM binding z-score value is on record for `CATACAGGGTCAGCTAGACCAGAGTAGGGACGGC`
4.3
